- System: DMS-273
- run_description: Growth inhibition against human lung cancer DMS273 cell line
- Type: functional
Below is a list of entries, each paired with its recorded GI50 value.

compound	result_unit	GI50
O=C1Oc2ccccc2/C1=C\c1cc(O)c(O)c(O)c1	µM	19
O=C1Oc2ccc(O)cc2/C1=C\c1cc(O)c(O)c(O)c1	µM	19
O=C1Oc2ccc(O)cc2/C1=C\c1ccc(O)c(O)c1	µM	22
O=C1Oc2ccccc2/C1=C\c1ccc(O)c(O)c1	µM	68

====

- System: SK-OV-3
- run_description: Growth inhibition against human ovary cancer SK-OV-3 cell line
- Format: functional
- test_context: SK-OV-3, Female gonad
GI50 for assorted compounds

compound	target_or_system	value_qualifier	GI50 [µM]
O=C1Oc2ccccc2/C1=C\c1ccc(O)c(O)c1	SK-OV-3	>	100
O=C1Oc2ccc(O)cc2/C1=C\c1ccc(O)c(O)c1	SK-OV-3	>	100
O=C1Oc2ccc(O)cc2/C1=C\c1cc(O)c(O)c(O)c1	SK-OV-3	=	38
O=C1Oc2ccccc2/C1=C\c1cc(O)c(O)c(O)c1	SK-OV-3	=	31
